Where do the numbers come from? From patent US10457703B2.

# targetOrTestSystem: human FXR (NR1H4) (Homo sapiens (Human))
# Sequence (Q96RI1 whole entry, the tested form may be a part): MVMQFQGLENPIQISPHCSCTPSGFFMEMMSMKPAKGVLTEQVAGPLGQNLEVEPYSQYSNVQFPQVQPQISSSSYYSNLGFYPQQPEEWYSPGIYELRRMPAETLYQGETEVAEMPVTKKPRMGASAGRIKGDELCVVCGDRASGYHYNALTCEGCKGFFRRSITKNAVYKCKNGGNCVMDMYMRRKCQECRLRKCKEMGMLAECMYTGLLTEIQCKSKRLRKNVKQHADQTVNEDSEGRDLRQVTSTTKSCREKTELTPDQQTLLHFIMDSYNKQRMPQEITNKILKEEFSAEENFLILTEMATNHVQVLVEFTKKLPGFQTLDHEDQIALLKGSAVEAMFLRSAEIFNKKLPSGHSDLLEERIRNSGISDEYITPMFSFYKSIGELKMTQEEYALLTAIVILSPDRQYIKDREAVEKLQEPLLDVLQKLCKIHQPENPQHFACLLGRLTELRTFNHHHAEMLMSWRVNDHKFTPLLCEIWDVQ
# assayProcedure: Human FXR (NR1H4) Assay (Gal4 promoter driven luciferase reporter, Indigo Bioscience kit)
# conditionNotes: Human FXR (NR1H4) Assay, potency ranges
observedProperty: EC50

Examples from the recorded data:
[[record]]
compound = "CC[C@H]1[C@@H](O)[C@@H]2[C@H](CC[C@]3(C)[C@@H]([C@H](C)CCOC(=O)NS(=O)(=O)c4ccc(C(C)(C)C)s4)CC[C@@H]23)[C@@]2(C)CC[C@@H](O)C[C@@H]12"
observedproperty = "EC50"
result = "< 100 nM"

[[record]]
compound = "CC[C@H]1[C@@H](O)[C@@H]2[C@H](CC[C@]3(C)[C@@H]([C@H](C)CCOC(=O)N[C@H](C(=O)O)C(C)C)CC[C@@H]23)[C@@]2(C)CC[C@@H](O)C[C@@H]12"
observedproperty = "EC50"
result = "100 to 1000 nM"

[[record]]
compound = "CC[C@H]1[C@@H](O)[C@@H]2[C@H](CC[C@]3(C)[C@@H]([C@H](C)CCOC(=O)NS(=O)(=O)c4cnccn4)CC[C@@H]23)[C@@]2(C)CC[C@@H](O)C[C@@H]12"
observedproperty = "EC50"
result = "1000 to 10000 nM"

[[record]]
compound = "CC[C@H]1[C@@H](O)[C@@H]2[C@H](CC[C@]3(C)[C@@H]([C@H](C)CCOC(=O)NCCO)CC[C@@H]23)[C@@]2(C)CC[C@@H](O)C[C@@H]12"
observedproperty = "EC50"
result = "100 to 1000 nM"

[[record]]
compound = "CC[C@H]1[C@@H](O)[C@@H]2[C@H](CC[C@]3(C)[C@@H]([C@H](C)COC(=O)NS(=O)(=O)c4ccc(-c5ccccc5)cc4)CC[C@@H]23)[C@@]2(C)CC[C@@H](O)C[C@@H]12"
observedproperty = "EC50"
result = "< 100 nM"


*Q* API: value(readout= EC50, system= human FXR (NR1H4) (Homo sapiens (Human)), query= CC[C@H]1[C@@H](O)[C@@H]2[C@H](CC[C@]3(C)[C@@H]([C@H](C)CCOC(=O)NC(C(C)C)C(C)C)CC[C@@H]23)[C@@]2(C)CC[C@@H](O)C[C@@H]12 )
*A* 1000 to 10000 nM

*Q* Report EC50 for CC[C@H]1[C@@H](O)[C@@H]2[C@H](CC[C@]3(C)[C@@H]([C@H](C)CCOC(=O)N4CCC[C@H]4CO)CC[C@@H]23)[C@@]2(C)CC[C@@H](O)C[C@@H]12 tested on human FXR (NR1H4) (Homo sapiens (Human)).
*A* < 100 nM
